test system: individual single vagal fibers (mesenteric nerve bundle of jejunal segment); test: Ex vivo vagal nerve fiber recording, test substance in lumen of jejunal segment, post hoc single unit burst analysis; parameters: species or system BALB/c mice; conditions: fractional change (treatment−control)/control; same luminal concentrations
MEASURED_METRIC: Fraction burst duration
Reply: number alone, nothing else.

Example results:
| MOLECULE | TESTED_TARGET | REPORTED_MEASUREMENT |
| --- | --- | --- |
| CC(NC(C)(C)C)C(=O)c1cccc(Cl)c1 (stereo not shown) | individual single vagal fibers (mesenteric nerve bundle of jejunal segment) | 0.1778 |
| CN[C@H]1CC[C@@H](c2ccc(Cl)c(Cl)c2)c2ccccc21 | individual single vagal fibers (mesenteric nerve bundle of jejunal segment) | 0.6184 |
| CNCCC(Oc1ccc(C(F)(F)F)cc1)c1ccccc1 (stereo not shown) | individual single vagal fibers (mesenteric nerve bundle of jejunal segment) | 0.6424 |

Now for a further molecule.
Task item: // query Fraction burst duration value for entry `CC(C)[C@@H](CC[C@@H](C)[C@H]1CC[C@H]2[C@@H]3[C@H](O)C[C@H]4C[C@@H](NCCCNCCCCN)CC[C@]4(C)[C@H]3CC[C@]12C)OS(=O)(=O)O`
Reply: 0.6752

Hey, just so you know, these numbers are from patent US20190299005A1.
